Target: T1, recombinant human IL-17RA Fc fusion protein (R&D Systems 177-IR-100) (human, UniProt Q96F46 33-320)
T1 construct: Bought protein; not shown: Fc domain of human IgG1
T1 sequence: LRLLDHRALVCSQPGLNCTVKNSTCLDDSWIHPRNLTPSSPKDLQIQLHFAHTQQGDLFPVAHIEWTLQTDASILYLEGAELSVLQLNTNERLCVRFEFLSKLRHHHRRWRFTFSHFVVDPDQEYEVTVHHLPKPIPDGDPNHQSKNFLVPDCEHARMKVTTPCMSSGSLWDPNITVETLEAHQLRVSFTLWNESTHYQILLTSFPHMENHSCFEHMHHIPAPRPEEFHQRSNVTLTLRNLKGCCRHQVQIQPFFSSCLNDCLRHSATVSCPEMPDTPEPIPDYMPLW
Assay: BIAcore T200 single-cycle kinetics, IL-17RA-Fc captured on protein G chip, VH as analyte
Readings of pKd for the listed binders
Just so you know, pKd here is -log10 of the concentration in molar units; reply with that number alone.

Binder	Readout Name	Readout Value
VH clone 2.1 (VHH, Human VH single domain antibody, no light chain; Parent clone of family 2; also called VH 2.1) VHH: QVQLVQSGAEVKKPGASVKVSCKASGYPFTSYDINWVRQATGQSLEWMGWMNPNSGDTVYAQKFQGRVTMTRNTSISTAYMELSSLRSEDTAVYFCARGRRDDWKNNYWGQGTLVTVSS	pKd	8.15
VH clone 7.1 (VHH, Human VH single domain antibody, no light chain; Parent clone of family 7) VHH: EVQLVESGGGLVQPGGSLRLSCAASGFTFSNYWMSWVRQARGKGLEWVANIRPDGSERYYVDSVKGRFTISRDNAKNSLYLQMSSLRAEDTAVYYCARSRDWGSRAFDIWGQGTMVTVSS	pKd	6.43
VH clone 5.1 (VHH, Human VH single domain antibody, no light chain; Parent clone of family 5) VHH: EVQLVESGGGLVKPGGSLRLSCEASGFTFSDFDMSWIRQAPGKGLEWVAYISSSDSTIYYRDSVKGRFTISRDNAKNSLYLQMNSLRAEDTAVYYCSRNGARYNWNYGDFQHWGQGTLVTVSS	pKd	7.39
VH clone 1.1 (VHH, Human VH single domain antibody, no light chain; Parent clone of family 1; also called VH 1.1) VHH: QVQLVESGGGLVQPGRSLRLSCAASGFTFDDYAMHWVRQAPGKGLEWVSGISWNSGRMDYADSVKGRFTISRDNAKKSLYLQMNSLRAEDTAMYYCAKEKGLGFCRGGSCSYFDYRGQGTLVTVSS	pKd	10.20

# get_value(readout='pKd', item= VH clone 3.1 (VHH, Human VH single domain antibody, no light chain; Parent clone of family 3; also called VH 3.1) VHH: EVQLVESGGGLVQPGGSLRLSCAASGFPFSTYWMRWLRQAPGKGLEWVANINQDGSEKYYVDSVKGRFTISRDNAKSSLFLQMNSLRAEDTAVYYCARGWESGWFEPWGQGTLVTVSS )
8.02
